Just for reference, patent US20260102501A1 is where these values come from.

# experimental-system: AR (cytosol from LnCaP cells) (Homo sapiens, UniProt P10275, T878A)
# Sequence (P10275 1-920 T878A): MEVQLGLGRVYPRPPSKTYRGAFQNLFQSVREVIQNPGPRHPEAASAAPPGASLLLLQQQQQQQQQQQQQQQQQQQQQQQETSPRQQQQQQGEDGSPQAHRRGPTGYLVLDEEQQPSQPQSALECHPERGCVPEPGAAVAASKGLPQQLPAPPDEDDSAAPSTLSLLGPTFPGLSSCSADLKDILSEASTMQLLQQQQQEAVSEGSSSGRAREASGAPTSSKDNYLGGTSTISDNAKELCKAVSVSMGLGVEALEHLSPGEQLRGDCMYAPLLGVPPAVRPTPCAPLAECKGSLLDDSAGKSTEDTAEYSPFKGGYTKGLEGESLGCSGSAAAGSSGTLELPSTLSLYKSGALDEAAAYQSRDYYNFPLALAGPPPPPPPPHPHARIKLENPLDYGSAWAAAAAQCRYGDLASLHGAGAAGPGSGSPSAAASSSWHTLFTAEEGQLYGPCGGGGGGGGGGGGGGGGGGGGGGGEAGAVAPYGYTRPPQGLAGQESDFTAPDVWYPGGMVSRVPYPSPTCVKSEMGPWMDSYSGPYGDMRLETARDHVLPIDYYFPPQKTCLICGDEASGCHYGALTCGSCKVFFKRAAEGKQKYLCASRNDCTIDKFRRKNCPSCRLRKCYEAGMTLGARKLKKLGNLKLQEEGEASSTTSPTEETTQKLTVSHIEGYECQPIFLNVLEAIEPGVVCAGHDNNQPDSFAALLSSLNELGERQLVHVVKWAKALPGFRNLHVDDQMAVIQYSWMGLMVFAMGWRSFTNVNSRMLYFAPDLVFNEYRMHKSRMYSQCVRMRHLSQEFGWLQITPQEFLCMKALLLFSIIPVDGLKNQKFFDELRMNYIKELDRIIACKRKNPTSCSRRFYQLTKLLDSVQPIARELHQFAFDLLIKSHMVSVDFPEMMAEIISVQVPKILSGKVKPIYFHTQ
# assay-explanation: AR binding assay (3H-R1881 displacement)
pIC50: −log10 of the molar value. Where a name gives a salt, the structure may show the parent alone. Numbered stars: 1 amine (or outer) side, 2 acyl side, 3 side chain; on linkers, the order of the positions; unused ones are H or OH. Square brackets hold non-standard residues; d marks the D form. Peptide text beside a SMILES is read from it. * marks the point of attachment. X1 = CC(=O)O[C@]1(C(C)=O)CC[C@H]2[C@@H]3CCC4=CC(=O)CCC4=C3[C@@H](c3ccc(*)cc3)C[C@@]21C; Exatecan = CC[C@@]1(O)C(=O)OCc2c1cc1n(c2=O)Cc2c-1nc1cc(F)c(C)c3c1c2[C@@H](N*)CC3; NHCH2OCH2CO = O=C(COCN[*:1])[*:2]; Sar = CNCC(=O)O
quantity-name: pIC50

compound | quantity-name | result
CC[C@@]1(O)C(=O)OCc2c1cc1n(c2=O)Cc2cc3c(CN4CCN(CC5CCN(c6ccc(C(=O)N[C@H]7CC[C@H](N(C)c8ccc(C#N)c(Cl)c8)CC7)nn6)CC5)CC4)c(OC)ccc3nc2-1 [Compound 40, formic acid salt] | pIC50 | 7.00 to 8.00
CC[C@@]1(O)C(=O)OCc2c1cc1n(c2=O)Cc2cc3c(CN4CCN(CCCCCCN(C)c5ccc([C@H]6C[C@@]7(C)[C@@H](CC[C@]7(OC(C)=O)C(C)=O)[C@@H]7CCC8=CC(=O)CCC8=C76)cc5)CC4)cccc3nc2-1 [Compound 38] | pIC50 | > 8.00
CC[C@@]1(O)C(=O)OCc2c1cc1n(c2=O)Cc2c-1nc1cc(F)c(C)c3c1c2[C@@H](NC(=O)COCNC(=O)CNC(=O)[C@H](Cc1ccccc1)NC(=O)CNC(=O)CN(C)c1ccc([C@H]2C[C@@]4(C)[C@@H](CC[C@]4(OC(C)=O)C(C)=O)[C@@H]4CCC5=CC(=O)CCC5=C42)cc1)CC3 [Compound 34] (X1-[Sar]GFG[NHCH2OCH2CO]-Exatecan) | pIC50 | 7.00 to 8.00
CC[C@@]1(O)C(=O)OCc2c1cc1n(c2=O)Cc2cc3c(CN(C)C)c(OC(=O)N(C)Cc4ccc(NC(=O)[C@H](CCCNC(N)=O)NC(=O)[C@@H](NCCCCCCN(C)c5ccc([C@H]6C[C@@]7(C)[C@@H](CC[C@]7(OC(C)=O)C(C)=O)[C@@H]7CCC8=CC(=O)CCC8=C76)cc5)C(C)C)cc4)ccc3nc2-1 [Compound No. 60] | pIC50 | 7.00 to 8.00
CC[C@@]1(O)C(=O)OCc2c1cc1n(c2=O)Cc2cc3c(CN(C)C)c(OC(=O)N4CCN(CC5CCN(c6ccc(C(=O)N[C@H]7CC[C@H](N(C)c8ccc(C#N)c(Cl)c8)CC7)nn6)CC5)CC4)ccc3nc2-1 [Compound No. 18] | pIC50 | 7.00 to 8.00
CC[C@@]1(O)C(=O)OCc2c1cc1n(c2=O)Cc2cc3c(CN(C)C)c(OC(=O)N4CCN(CC5CCN(c6ccc(C(=O)N[C@H]7CC[C@H](Oc8ccc(C#N)c(Cl)c8C)CC7)nn6)CC5)CC4)ccc3nc2-1 [Compound 31] | pIC50 | > 8.00
CC[C@@]1(O)C(=O)OCc2c1cc1n(c2=O)Cc2cc3c(CN(C)C)c(OC(=O)N4CCN(CC5CCN(c6ccc(N7C(=S)N(c8ccc(C#N)c(Cl)c8)C(=O)C7(C)C)cc6)CC5)CC4)ccc3nc2-1 [Compound 58] | pIC50 | 7.00 to 8.00
CC[C@@]1(O)C(=O)OCc2c1cc1n(c2=O)Cc2c-1nc1cc(F)c(C)c3c1c2[C@@H](NC(=O)CN1CCN(CCCCCCC2CCN(c4ccc(C(=O)N[C@H]5CC[C@H](Oc6ccc(C#N)c(Cl)c6C)CC5)nn4)CC2)CC1)CC3 [Compound No. 48] | pIC50 | 7.00 to 8.00

Task: Sample CC[C@@]1(O)C(=O)OCc2c1cc1n(c2=O)Cc2cc3c(CN4CCN(C(=O)C5CCN(c6ccc(C(=O)N[C@H]7CC[C@H](Oc8ccc(C#N)c(Cl)c8)CC7)nn6)CC5)CC4)c(OC(=O)N4CCC(N5CCCCC5)CC4)ccc3nc2-1 [Compound No. 13] — what was its pIC50?
Result: 7.00 to 8.00

Task: Sample CC[C@@]1(O)C(=O)OCc2c1cc1n(c2=O)Cc2c-1nc1cc(F)c(C)c3c1c2[C@@H](N(C)C(=O)COCC1CCN(CCCCCCCN(C)c2ccc([C@H]4C[C@@]5(C)[C@@H](CC[C@]5(OC(C)=O)C(C)=O)[C@@H]5CCC6=CC(=O)CCC6=C54)cc2)CC1)CC3 [Compound 55] — what was its pIC50?
Result: 7.00 to 8.00

Task: Sample CCCCCCC(=O)O[C@]1(CC)C(=O)OCc2c1cc1n(c2=O)Cc2cc3c(CN(C)C)c(OC(=O)N4CCN(CCCCCCN(C)c5ccc([C@H]6C[C@@]7(C)[C@@H](CC[C@]7(OC(C)=O)C(C)=O)[C@@H]7CCC8=CC(=O)CCC8=C76)cc5)CC4)ccc3nc2-1 [Compound No. 12] — what was its pIC50?
Result: 6.00 to 7.00

Task: Sample CC[C@@]1(OC(=O)N2CCN(CCCCCCN(C)c3ccc([C@H]4C[C@@]5(C)[C@@H](CC[C@]5(OC(C)=O)C(C)=O)[C@@H]5CCC6=CC(=O)CCC6=C54)cc3)CC2)C(=O)OCc2c1cc1n(c2=O)Cc2cc3cc(O)ccc3nc2-1 [Compound 57] — what was its pIC50?
Result: 7.00 to 8.00

Task: Sample CC[C@@]1(O)C(=O)OCc2c1cc1n(c2=O)Cc2cc3c(CN(C)C)c(OC(=O)N4CCN(C(=O)CCCCCNC(=O)c5ccc(N6C(=S)N(c7ccc(C#N)c(C(F)(F)F)c7)C(=O)C6(C)C)cc5F)CC4)ccc3nc2-1 [Compound 9] — what was its pIC50?
Result: < 6.00

Task: Sample CC[C@@]1(O)C(=O)OCc2c1cc1n(c2=O)Cc2cc3c(CN(C)C)c(OC(=O)N4C[C@H](C)N(C(=O)[C@H](CCCNC(N)=O)NC(=O)[C@@H](NCCCCCCN(C)c5ccc([C@H]6C[C@@]7(C)[C@@H](CC[C@]7(OC(C)=O)C(C)=O)[C@@H]7CCC8=CC(=O)CCC8=C76)cc5)C(C)C)C[C@H]4C)ccc3nc2-1 [Compound 35] — what was its pIC50?
Result: 7.00 to 8.00

Task: Sample CC[C@@]1(O)C(=O)OCc2c1cc1n(c2=O)Cc2cc3c(CN4CCN(C)CC4)c(OC(=O)N4CCN(CCCCCCN(C)c5ccc([C@H]6C[C@@]7(C)[C@@H](CC[C@]7(OC(C)=O)C(C)=O)[C@@H]7CCC8=CC(=O)CCC8=C76)cc5)CC4)ccc3nc2-1 [Compound 5] — what was its pIC50?
Result: 7.00 to 8.00
